Test system: P-glycoprotein (MDR1)
procedureDetails: P-glycoprotein-mediated transport in MDCK2-MDR1 cells assessed as permeability across basolateral to apical side at 5 uM after 1 hr
experimentalContext: dog, MDCK-MDR1
recordedEndpoint: Papp B-A at 1 h, 5 µM (×10⁻⁶ cm/s)

Known Papp B-A at 1 h, 5 µM results, listed for orientation:
smilesstructure=CN(C)c1ccc(-c2cc(-c3ccc(C(=O)N4CCCCC4)s3)cc(-c3ccc(N(C)C)cc3)[s+]2)cc1.F[P-](F)(F)(F)(F)F numericresult=62
smilesstructure=CN(C)c1ccc(-c2cc(-c3ccc(C(=S)N4CCCCC4)s3)cc(-c3ccc(N(C)C)cc3)[s+]2)cc1.[Cl-] numericresult=1.6
smilesstructure=CN(C)c1ccc(-c2cc(-c3ccc(C(=S)N4CCCCC4)s3)cc(C(C)(C)C)[s+]2)cc1.[Cl-] numericresult=32
smilesstructure=CC(C)(C)c1cc(-c2ccc(C(=S)N3CCCCC3)s2)cc(C(C)(C)C)[s+]1.[Cl-] numericresult=30

P = CC(C)(C)c1cc(-c2ccc(C(=O)N3CCCCC3)s2)cc(C(C)(C)C)[s+]1.F[P-](F)(F)(F)(F)F
Q = CN(C)c1ccc(-c2cc(-c3ccc(C(=O)N4CCCCC4)s3)cc(C(C)(C)C)[s+]2)cc1.F[P-](F)(F)(F)(F)F
Identify the entry with the smaller Papp B-A at 1 h, 5 µM: P or Q . Could you answer with the label of the item you picked?
Q
(Q: 2.2 ×10⁻⁶ cm/s, P: 5.9 ×10⁻⁶ cm/s)
